Test: Selectivity index, ratio of CC50 for human MT4 cells to EC50 for reverse transcriptase F227L/V106A double mutant in human MT4 cells infected HIV1 3B
Conditions: MT4 cells
attribute_measured: selectivity ratio

Input: Identify measured selectivity ratio associated with Cc1cc(C#N)cc(C)c1Oc1nc(NC2CCN(Cc3cccc(C(N)=O)c3)CC2)nc2sccc12
Output: > 1930

Input: Identify measured selectivity ratio associated with CCOC(=O)c1ccc(CN2CCC(Nc3nc(Oc4c(C)cc(/C=C/C#N)cc4C)c4sccc4n3)CC2)cc1
Output: ≥ 42

Input: Identify measured selectivity ratio associated with CCOC(=O)c1ccc(CN2CCC(Nc3nc(Oc4c(C)cc(C#N)cc4C)c4ccsc4n3)CC2)cc1
Output: > 63

###

Assay: Cytotoxicity against human MT4 cells assessed as cell viability after 5 days by MTT assay
Format: cell-based
attribute_measured: CC50 at 120 h

Input: Identify measured CC50 at 120 h associated with Cc1cc(C#N)cc(C)c1Oc1nc(NC2CCN(Cc3cccc(C(N)=O)c3)CC2)nc2sccc12
Output: > 48.7 µM

Input: Identify measured CC50 at 120 h associated with Cc1cc(C#N)cc(C)c1Oc1nc(Nc2ccc(C#N)cc2)nc(N)c1Br [ETRAVIRINE]
Output: > 4.59 µM

Input: Identify measured CC50 at 120 h associated with CCOC(=O)c1ccc(CN2CCC(Nc3nc(Oc4c(C)cc(C#N)cc4C)c4ccsc4n3)CC2)cc1
Output: > 230 µM

###

Assay: Selectivity index, ratio of CC50 for human MT4 cells to EC50 for HIV1 RES056 reverse transcriptase K103N/Y181C double mutant infected in human MT4 cells
Settings: MT4 cells
attribute_measured: selectivity ratio

Input: Identify measured selectivity ratio associated with CCOC(=O)C1CN(Cc2ccc(S(N)(=O)=O)cc2)CCC1Nc1nc(Oc2c(C)cc(C#N)cc2C)c2sccc2n1 (stereo unspecified)
Output: ≤ 5

Input: Identify measured selectivity ratio associated with Cc1cc(C#N)cc(C)c1Oc1nc(NC2CCC(NCc3ccccc3)CC2)nc2ccsc12 (stereo unspecified)
Output: < 1

Input: Identify measured selectivity ratio associated with Cc1cc(C#N)cc(C)c1Oc1nc(NC2CCN(Cc3ccc(S(N)(=O)=O)cc3)CC2C(=O)O)nc2ccsc12 (stereo unspecified)
Output: < 1

Input: Identify measured selectivity ratio associated with Cc1cc(C#N)cc(C)c1Oc1nc(NC2CCN(Cc3ccc(S(N)(=O)=O)cc3)CC2)nc2ccsc12
Output: > 7350

Input: Identify measured selectivity ratio associated with Cc1cc(C#N)cc(C)c1Oc1nc(NC2CCC(NCc3ccc(Br)cc3)CC2)nc2ccsc12 (stereo unspecified)
Output: < 1

Input: Identify measured selectivity ratio associated with Cc1cc(C#N)cc(C)c1Oc1nc(NC2CCC(NCc3ccc(S(C)(=O)=O)cc3)CC2)nc2ccsc12 (stereo unspecified)
Output: < 1

###

Assay: Selectivity index, ratio of CC50 for human MT4 cells to EC50 for reverse transcriptase K103N mutant in human MT4 cells infected HIV1 3B
Conditions: MT4 cells
attribute_measured: selectivity ratio
Lab note: record just the number, no unit beside it.

Input: Identify measured selectivity ratio associated with COC(=O)c1ccc(CN2CCC(Nc3nc(Oc4c(C)cc(C#N)cc4C)c4ccsc4n3)CC2)cc1
Output: 982

Input: Identify measured selectivity ratio associated with Cc1cc(C#N)cc(C)c1Oc1nc(NC2CCN(Cc3ccc(S(N)(=O)=O)cc3)CC2F)nc2ccsc12 (configuration not stated)
Output: 653

Input: Identify measured selectivity ratio associated with Cc1cc(/C=C/C#N)cc(C)c1Oc1nc(NC2CCN(Cc3ccccc3F)CC2)nc2ccsc12
Output: 361

Input: Identify measured selectivity ratio associated with Cc1cc(/C=C/C#N)cc(C)c1Oc1nc(NC2CCN(Cc3cccnc3)CC2)nc2ccsc12
Output: 872

Input: Identify measured selectivity ratio associated with CCOC(=O)C1CN(Cc2ccc(S(N)(=O)=O)cc2)CCC1Nc1nc(Oc2c(C)cc(C#N)cc2C)c2sccc2n1 (configuration not stated)
Output: 18

Input: Identify measured selectivity ratio associated with Cc1cc(/C=C/C#N)cc(C)c1Oc1nc(NC2CCN(Cc3ccc(Br)cc3)CC2)nc2ccsc12
Output: 227
